# IC50 per record follows
Target: HDAC6 (Homo sapiens)
Sequence (Q9UBN7 1-1215): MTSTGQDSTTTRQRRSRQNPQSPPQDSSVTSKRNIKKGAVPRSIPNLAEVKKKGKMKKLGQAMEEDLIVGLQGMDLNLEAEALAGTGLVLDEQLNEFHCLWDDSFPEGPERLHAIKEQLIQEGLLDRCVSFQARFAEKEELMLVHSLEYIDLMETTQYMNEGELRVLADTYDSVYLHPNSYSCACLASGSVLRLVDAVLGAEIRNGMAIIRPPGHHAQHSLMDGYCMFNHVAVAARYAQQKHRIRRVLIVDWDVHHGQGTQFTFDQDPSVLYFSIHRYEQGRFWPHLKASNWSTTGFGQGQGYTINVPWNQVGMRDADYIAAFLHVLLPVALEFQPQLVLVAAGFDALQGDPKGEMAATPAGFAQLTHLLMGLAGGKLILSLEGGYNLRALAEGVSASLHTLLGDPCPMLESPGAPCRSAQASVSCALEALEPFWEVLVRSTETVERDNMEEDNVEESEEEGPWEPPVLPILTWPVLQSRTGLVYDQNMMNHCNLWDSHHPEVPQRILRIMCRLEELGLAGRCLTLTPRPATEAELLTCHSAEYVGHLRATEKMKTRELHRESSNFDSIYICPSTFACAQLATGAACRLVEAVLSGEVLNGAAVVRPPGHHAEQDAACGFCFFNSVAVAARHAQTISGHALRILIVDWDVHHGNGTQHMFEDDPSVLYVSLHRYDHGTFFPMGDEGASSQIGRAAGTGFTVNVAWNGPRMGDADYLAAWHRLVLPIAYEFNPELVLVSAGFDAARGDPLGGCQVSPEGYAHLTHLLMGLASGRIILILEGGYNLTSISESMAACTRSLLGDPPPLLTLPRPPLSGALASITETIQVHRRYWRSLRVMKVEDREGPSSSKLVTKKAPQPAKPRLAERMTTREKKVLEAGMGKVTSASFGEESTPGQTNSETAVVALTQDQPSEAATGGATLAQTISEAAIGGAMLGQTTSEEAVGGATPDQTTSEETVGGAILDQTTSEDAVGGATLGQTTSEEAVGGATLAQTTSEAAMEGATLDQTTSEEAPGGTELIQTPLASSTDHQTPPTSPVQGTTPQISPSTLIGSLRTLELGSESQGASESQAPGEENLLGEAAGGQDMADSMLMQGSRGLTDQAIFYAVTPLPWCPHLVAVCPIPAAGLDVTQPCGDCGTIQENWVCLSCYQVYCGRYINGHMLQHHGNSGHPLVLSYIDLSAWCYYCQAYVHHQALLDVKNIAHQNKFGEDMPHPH

Guide cases for IC50, answers given:
SMILES_INPUT	IC50
O=C(CCCCc1ccccc1)CCc1ccccc1	> 40 µM
O=C(/C=C/c1ccc(O)cc1)CCCCc1ccccc1	> 40 µM

Next:
What measured IC50 goes with `O=C(/C=C/c1ccc(O)c(Br)c1)CCCCc1ccccc1` ?
> 40 µM

====

# pIC50 per record follows
molecular target: Aβ1-42 (Homo sapiens, UniProt P05067); construct: Aβ1-42 peptides were purchased from Kelowna International Scientific Inc; test: Inhibition of Aβ1-42 self-aggregation, thioflavin-T (ThT) fluorescence assay; conditions: 24 h, read-out: Beta-Amyloid Aggregation IC50
Sequence (P05067 672-713 limits assumed): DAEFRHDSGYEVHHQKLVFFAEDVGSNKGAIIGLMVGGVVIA
pIC50: −log10 of the molar value.

Guide cases for pIC50, answers given:
SMILES_INPUT	VALUE_OBSERVED
O=C(CCCCc1ccccc1)CCc1ccccc1	< 5.00
COc1cc(/C=C/C(=O)CCCCc2ccccc2)ccc1O	< 5.00

What measured pIC50 goes with `O=C(CCc1ccccc1)CCc1ccc(O)c(O)c1` ?
5.10

What measured pIC50 goes with `O=C(CCCCc1ccccc1)CCc1ccc(O)c(Cl)c1` ?
< 5.00

What measured pIC50 goes with `O=C(/C=C/c1ccc(O)c(Cl)c1)CCCCc1ccccc1` ?
< 5.00
